Molecular target: UniProt:P08684
Sequence (P08684 whole entry): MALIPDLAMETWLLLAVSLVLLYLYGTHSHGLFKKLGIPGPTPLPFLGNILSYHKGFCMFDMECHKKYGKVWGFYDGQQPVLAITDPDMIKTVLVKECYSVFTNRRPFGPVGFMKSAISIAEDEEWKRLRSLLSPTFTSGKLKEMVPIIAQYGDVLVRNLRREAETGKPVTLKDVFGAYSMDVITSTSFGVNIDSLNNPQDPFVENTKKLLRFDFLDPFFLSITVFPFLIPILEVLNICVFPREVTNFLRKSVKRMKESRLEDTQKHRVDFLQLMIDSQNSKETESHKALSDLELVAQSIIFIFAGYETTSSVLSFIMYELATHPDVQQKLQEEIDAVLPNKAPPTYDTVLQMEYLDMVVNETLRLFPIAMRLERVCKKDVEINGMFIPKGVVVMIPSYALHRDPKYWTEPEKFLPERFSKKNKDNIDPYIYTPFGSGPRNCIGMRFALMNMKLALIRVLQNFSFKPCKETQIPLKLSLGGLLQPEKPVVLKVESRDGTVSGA
Conditions: Potency
Readout kind: AC50

* CC/C(=C(\c1ccc(O)cc1)c1ccc(OCCN(C)C)cc1)c1ccccc1 | 25.1 µM (inconclusive)
* COC(=O)N1[C@H](C)C=C[C@]1(Cc1ccccc1)C(=O)NCc1ccc(C)o1 | 7.94 µM (inconclusive)
* CCCCCC(=O)c1cc(CC(C(=O)OC)C(=O)OC)cc2cc(OC)c(OC)cc12 | 3.98 µM (inconclusive)
* CC(=O)C1=C(O)C=C2Oc3c(C(C)=O)c(O)c(C)c(O)c3[C@]2(C)C1=O [(-)-USNIC ACID] | 31.6 µM (inconclusive)

---

Molecular target: Phosphomannomutase 2 (Homo sapiens)
Sequence (O15305 whole entry): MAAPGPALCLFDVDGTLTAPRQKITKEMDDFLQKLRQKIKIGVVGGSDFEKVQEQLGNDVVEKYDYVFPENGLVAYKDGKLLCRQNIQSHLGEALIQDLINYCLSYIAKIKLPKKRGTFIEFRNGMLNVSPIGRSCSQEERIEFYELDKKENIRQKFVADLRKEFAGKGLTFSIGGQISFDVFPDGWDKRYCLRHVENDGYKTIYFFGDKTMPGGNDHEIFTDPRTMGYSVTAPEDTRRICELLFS
Assay: Counter screen SAR assay for PMM2 inhibitors via a fluorescence intensity assay. [Related pubchem assays (depositor defined):AID1545, AID1574]
Active and inactive are the calls of the source.
Labels: label 1 for active, label 0 for inactive

- CN(C)c1ccc(/N=c2\ssnc2Cl)cc1: label 0
- Cc1ccc(C)c(-n2sc3ccccc3c2=O)c1: label 1
- Cc1ccc2nc(-n3sc4ccccc4c3=O)sc2c1: label 0
- O=c1c2ccccc2sn1-c1ccc(Cl)c(S(=O)(=O)N2CCOCC2)c1: label 1
- O=[N+]([O-])c1ccc(/N=c2\ssnc2Cl)c2ccccc12: label 0

---

Estrogen receptor (Homo sapiens, UniProt P03372) data, read-out IC50;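 further: potency for inhibiting coactivator peptide recruitment to the receptor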
Sequence (P03372 whole entry): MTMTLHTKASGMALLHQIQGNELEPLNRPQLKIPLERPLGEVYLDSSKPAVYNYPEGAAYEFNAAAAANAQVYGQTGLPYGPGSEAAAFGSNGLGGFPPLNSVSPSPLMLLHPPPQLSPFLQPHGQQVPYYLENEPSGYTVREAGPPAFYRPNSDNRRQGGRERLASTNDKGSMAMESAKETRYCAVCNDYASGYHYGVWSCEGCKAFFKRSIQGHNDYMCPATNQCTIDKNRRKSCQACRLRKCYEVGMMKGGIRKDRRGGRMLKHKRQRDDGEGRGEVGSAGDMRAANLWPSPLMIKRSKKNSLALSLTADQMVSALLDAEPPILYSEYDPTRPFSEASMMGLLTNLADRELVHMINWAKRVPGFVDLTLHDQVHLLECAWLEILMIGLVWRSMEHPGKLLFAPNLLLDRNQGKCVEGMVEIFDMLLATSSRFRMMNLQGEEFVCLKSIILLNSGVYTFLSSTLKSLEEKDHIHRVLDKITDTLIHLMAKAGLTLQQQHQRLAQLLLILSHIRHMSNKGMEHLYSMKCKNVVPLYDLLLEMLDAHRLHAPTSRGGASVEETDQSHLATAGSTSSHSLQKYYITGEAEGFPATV
The source made the active and inactive calls.
Readout kind: IC50

• CC(C)CNC(=O)c1c(N)n(/N=C/c2ccccn2)c2nc3ccccc3nc12 = 15.9 µM (active)
• COc1ccc2[nH]c3nc(SCc4nnc(-c5ccc(C)cc5)o4)nnc3c2c1 = 6.84 µM (active)
• COc1ccc(C(=O)CSc2nnc(C3CCCCC3)n2N)c(OC)c1 = > 50 µM (not active)
• CSc1cccc(NC(=O)CN(c2ccccc2)S(=O)(=O)N(C)C)c1 = > 50 µM (not active)

---

System: BJ
Assay: BJ-TERT fibroblast viability loss – cell-based, RAS-independent, luminescence, dose response (AID 1933)
Type: functional
Conditions: Homo sapiens
Active and inactive are the calls of the source.
Readout kind: EC50

• CCN(CC)c1ccc2nc3ccccc3[n+](CC)c2c1 = 16.9 µM (active)
• O=C(CSc1nnc(-c2ccccc2)o1)Nc1ccccc1F = 11.5 µM (active)
• Cc1nc(N2CCCCC2)sc1C(=O)c1ccc(Cl)c([N+](=O)[O-])c1 = 9.77 µM (active)
• O=C(N/N=C/c1ccc([N+](=O)[O-])o1)c1cc(-c2ccc(-c3ccccc3)cc2)nc2ccccc12 = 9.46 µM (inconclusive)
• COc1ccc(/C=C2\CN(Cc3ccccc3)C/C(=C\c3ccc(OC)c(O)c3)C2=O)cc1O = 2.04 µM (active)

---

Assay: DRD fibroblast viability loss – cell-based, non-viral oncogenic, luminescence, dose response (AID 1934)
Format: functional
Conditions: Homo sapiens
Active and inactive are the calls of the source.
Readout kind: EC50

* CCN(CC)c1ccc2nc3ccccc3[n+](CC)c2c1 | 15.2 µM (active)
* COc1ccc(/C=C2\CN(Cc3ccccc3)C/C(=C\c3ccc(OC)c(O)c3)C2=O)cc1O | 2.65 µM (active)
* O=C(CSc1nnc(-c2ccccc2)o1)Nc1ccccc1F | 8.39 µM (active)
* O=C(N/N=C/c1ccc([N+](=O)[O-])o1)c1cc(-c2ccc(-c3ccccc3)cc2)nc2ccccc12 | 8.03 µM (inconclusive)

---

Test: NIH3T3 cell viability loss – ATP luminescence, mouse fibroblasts, counter-screen, dose response (AID 2010);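 further: cells exposed to compound for about 90 hours before reading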
Type: functional, cell-based
Active and inactive are the calls of the source.
Readout kind: EC50

* O=C(Nc1nc2c(F)cc(F)cc2s1)C1CC1 | > 60 µM (not active)
* Cc1cc(C)c(S(=O)(=O)c2ccccc2C)c(Cl)n1 | > 60 µM (not active)
* N=c1c2c(-c3ccccc3)c(-c3ccccc3)n(Cc3ccco3)c2ncn1CCCO | 11.3 µM (active)
* Cc1cc(-c2cn3ccccc3n2)c(C)n1-c1ccccc1 | > 30 µM (not active)
* CC(C)C(=O)N1CCN(c2ccccc2NC(=O)c2ccc([N+](=O)[O-])o2)CC1 | > 60 µM (not active)
* CN(C)CCCNc1cc(C(C)(C)C)nc2c(-c3ccccc3)cnn12 | 4.96 µM (active)
* OCCCNc1c2ccccc2nc2ccccc12 | 7.34 µM (active)
* O=C(Nc1cccc(NC(=O)c2cccs2)c1)c1ccc([N+](=O)[O-])o1 | > 60 µM (not active)
* CCOC(=O)c1c(NC(=O)CN2CCCCC2)sc(CN(C)C)c1-c1ccccc1 | > 30 µM (not active)
* CSc1cccc(NC(=S)N(Cc2ccc(C)cc2)Cc2ccccn2)c1 | > 60 µM (not active)
* O=C(CSc1ncnc2c1nnn2Cc1ccc(F)cc1)NC1CCCCC1 | > 60 µM (not active)

---

System: INS1
Assay: INS-1E survival protection against cytokine death – cell-based, luminescence, retest, dose response (AID 449756);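 further: cell death triggered by IL-1 beta plus TNF-alpha plus IFN-gamma mixture; protective hits raise ATP signal compared with cytokine alone wells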
Type: functional
Details: Rattus norvegicus, INS1
Calls of active or inactive are those of the source.
Readout kind: AC50

* O=C(Nc1ccc(OCC(F)(F)C(F)F)c(C(F)(F)F)c1)c1ccccc1O | 4.78 µM (active)
* CCCCCCOc1ccc(CN2CCN(C)CC2)cc1 | 4.04 µM (active)
* CN(C)CCCNc1cc(C(C)(C)C)nc2c(-c3ccccc3)cnn12 | 13.8 µM (active)
* O=C1CSC(c2ccccc2F)N1 (centres undefined) | > 260 µM (inactive)

---

Molecular target: UniProt Q8VNN2
Sequence (Q8VNN2 whole entry): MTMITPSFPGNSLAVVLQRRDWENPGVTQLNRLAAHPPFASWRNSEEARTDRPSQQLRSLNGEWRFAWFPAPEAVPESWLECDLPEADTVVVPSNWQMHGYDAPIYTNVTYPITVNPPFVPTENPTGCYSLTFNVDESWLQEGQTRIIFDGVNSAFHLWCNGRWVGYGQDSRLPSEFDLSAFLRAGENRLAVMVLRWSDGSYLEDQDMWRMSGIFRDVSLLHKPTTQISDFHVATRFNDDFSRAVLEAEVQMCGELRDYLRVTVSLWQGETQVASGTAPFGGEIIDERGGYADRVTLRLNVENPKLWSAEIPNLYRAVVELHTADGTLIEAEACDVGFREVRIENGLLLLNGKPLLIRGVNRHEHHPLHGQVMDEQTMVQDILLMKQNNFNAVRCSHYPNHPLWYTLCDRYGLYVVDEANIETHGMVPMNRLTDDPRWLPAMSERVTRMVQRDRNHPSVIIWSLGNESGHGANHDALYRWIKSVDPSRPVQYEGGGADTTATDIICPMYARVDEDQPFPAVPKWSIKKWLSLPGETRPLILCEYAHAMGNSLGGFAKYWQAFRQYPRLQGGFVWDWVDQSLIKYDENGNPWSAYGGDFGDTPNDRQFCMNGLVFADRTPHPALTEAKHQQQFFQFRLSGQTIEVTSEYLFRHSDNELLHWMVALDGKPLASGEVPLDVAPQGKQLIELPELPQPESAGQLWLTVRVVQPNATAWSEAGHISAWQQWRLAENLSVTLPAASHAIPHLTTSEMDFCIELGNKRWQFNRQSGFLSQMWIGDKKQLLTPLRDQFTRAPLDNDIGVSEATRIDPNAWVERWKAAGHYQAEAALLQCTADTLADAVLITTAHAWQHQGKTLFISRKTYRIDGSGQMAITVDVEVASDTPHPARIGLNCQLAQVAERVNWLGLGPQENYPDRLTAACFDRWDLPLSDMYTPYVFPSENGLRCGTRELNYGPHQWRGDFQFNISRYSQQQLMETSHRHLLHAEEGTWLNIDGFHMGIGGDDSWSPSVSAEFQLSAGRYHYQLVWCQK
Experiment: Dose response counterscreen for EBI2 assay utilizing the enzyme, b-galactosidase.
Assay type: functional
The source made the active and inactive calls.
Labels: YES for active, NO for inactive

* O=C1C(Cc2ccccc2)Nc2ncnc(N3CCN(c4ccccc4)CC3)c2N1Cc1ccc(Br)cc1 (stereo not given) | YES
* COc1ccc(N(CC(=O)NCCSc2ccccc2)S(=O)(=O)c2ccccc2)cc1 | NO
* O=C(c1cc(=O)c2cc(Cl)ccc2o1)N1CCN(Cc2ccccc2)CC1 | NO
* Cc1cc(C)c(S(=O)(=O)N2CCN(C(=O)c3cc4ccccc4o3)CC2)c(C)c1 | NO
* COc1ccccc1N1CCN(C(=O)c2cc3cc(Cl)ccc3[nH]2)CC1 | NO

---

Test: blockers of HIV-1 ZM109 envelope-driven cell-cell fusion – HeLa effector, CEM target cells, luciferase, cherry-pick, dose response (AID 652058);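 further: luciferase signal from HIV-1 Env mediated cell-cell fusion of effector and target cells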
Assay type: functional, cell-based
Activity calls are given as the source filed them.
Readout kind: AC50

• CN(C)c1ncnc2c1ccn2C1OC(CO)C(O)C1O (centres undefined) = 3.41 µM (active)
• COc1ccc2c(c1)[C@H]1[C@H](CO2)[C@H](c2ccccc2)[C@]2(C)C(=O)Nc3cc(OC)c(OC)cc3C(=O)N12 = 18.9 µM (active)
• CCOc1ccccc1N(C(=O)CNC(=O)c1ccco1)C(C(=O)NC1CCCC1)c1cccnc1 (centres undefined) = 6.15 µM (active)
• S=C(NCc1ccc(Cl)cc1)NC12CC3CC(CC(C3)C1)C2 = 6.05 µM (active)

---

Known IC50 of a selection of compounds
Biological target: Carboxy-terminal domain RNA polymerase II polypeptide A small phosphatase 1 (Homo sapiens)
Sequence (Q9GZU7 whole entry, the tested form may be a part): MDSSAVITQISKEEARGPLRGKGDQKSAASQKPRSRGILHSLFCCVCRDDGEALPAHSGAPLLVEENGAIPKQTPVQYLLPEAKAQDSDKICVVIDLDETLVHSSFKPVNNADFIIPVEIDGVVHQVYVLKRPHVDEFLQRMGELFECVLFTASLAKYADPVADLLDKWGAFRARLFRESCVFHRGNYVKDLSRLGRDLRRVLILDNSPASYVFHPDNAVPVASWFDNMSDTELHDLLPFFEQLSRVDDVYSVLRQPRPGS
Test: CTDSP1 inhibitors, concentration-response, biochemical, absorbance readout, ultra-high-throughput screen actives (AID 540297)
Format: functional
The source made the active and inactive calls.
Readout kind: IC50

- COc1cccc(NC(=O)CN(C)C(=O)c2cc(-c3ccco3)nc3ccccc23)c1: 6.41 µM (active)
- CCOC(=O)C(C)N1C(=O)S/C(=C\c2ccc(-c3ccccc3C(=O)O)o2)C1=O (stereo not drawn): 1.88 µM (active)
- N#CC1=C(N)n2c(s/c(=C\c3ccco3)c2=O)=C(C#N)C1c1ccco1 (stereo not drawn): 3.44 µM (active)
- CN(CC(=O)Nc1cccc(F)c1)C(=O)c1cccc(-n2cccc2)c1: 6.19 µM (active)
- Cc1c(C)n(C(=O)CSc2nc3ccccc3[nH]2)c2ccccc12: 3.37 µM (active)
- Cc1ccc(NC(=O)CCc2nc(O)c3c4c(sc3n2)CCCC4)nc1: 5.1 µM (active)
- O=C(/C=C/c1ccc(Cl)c([N+](=O)[O-])c1)Nc1ccc(N2CCCC2)cc1: 3.29 µM (active)
- O=C(NN=C1CCCC1)c1cc(O)cc(O)c1: 10.2 µM (active)
- CC1=CCC(C(=O)O)C(C(=O)NC2CCCCC2)C1 (stereo not drawn): 33.8 µM (active)
- Cc1ccc(C(=O)O)cc1NC(=S)NC(=O)c1ccc(COc2ccccc2)cc1: 6.25 µM (active)
- Cc1cccc(C(=O)NNC(=O)c2ccc(-c3ccccc3)cc2)c1: 5.8 µM (active)
- COc1ccc(/C=C2\C(=O)NC(=S)N(C)C2=O)cc1C: 0.632 µM (active)
- COc1ccc(NC(=O)c2c3c(nc4ccccc24)CCC3)cc1S(=O)(=O)N1CCOCC1: 3.75 µM (active)

The measured values listed here are drawn from ChEMBL document CHEMBL1201862.
